Entry source: PubChem BioAssay (NCI)

The entries below are paired with their reported TGI.
System: KM12 colon
Assay: NCI tumour cell line growth inhibition, 48 h

- compound: "COc1ccc(NC2=CC(=O)C(=O)c3ccccc32)nn1"
  tested on: "KM12 colon"
  TGI: "1.62 µM"
- compound: "CN(C)CCn1c(=O)c2ccc(NCCCN(C)CCCNc3ccc4c(=O)n(CCN(C)C)c(=O)n5c6ccc([N+](=O)[O-])cc6c(=O)c3c45)c3c(=O)c4cc([N+](=O)[O-])ccc4n(c1=O)c23"
  tested on: "KM12 colon"
  TGI: "0.27 µM"
- compound: "CN(C)S(=O)(=O)Nc1nnc(S(N)(=O)=O)s1"
  tested on: "KM12 colon"
  TGI: "> 100 µM"
- compound: "CC1=NN(C(=O)Nc2ccccc2)C(=O)C2CCC(=O)N12 (centres undefined)"
  tested on: "KM12 colon"
  TGI: "> 100 µM"
- compound: "COc1ccc(/C=C/CN(C)CCc2ccccc2)cc1OC"
  tested on: "KM12 colon"
  TGI: "> 100 µM"
- compound: "CC(C)(CC(=O)Nc1ccccc1)C(=O)O"
  tested on: "KM12 colon"
  TGI: "> 100 µM"
- compound: "CCC(C)C(=O)OC1CC2(C)C(c3ccoc3)OC(=O)CC23OC2(C)OC34C(OC(=O)C(C)C)C3(O)C(OC(=O)C5(C)OC5C)C5(C)CC3(O)C(C)(C5CC(=O)OC)C14O2 (centres undefined)"
  tested on: "KM12 colon"
  TGI: "> 100 µM"
- compound: "Oc1ccc(NCc2nc3ccccc3[nH]2)cc1"
  tested on: "KM12 colon"
  TGI: "> 100 µM"
- compound: "CC(C)(C)OC(=O)N1CCc2c(sc3ncnc(N/N=C/c4cccc5ccccc45)c23)C1"
  tested on: "KM12 colon"
  TGI: "76.9 µM"

* * *

System: 786-0 renal
Test: NCI tumour cell line growth inhibition, 48 h

- molecule: "Cc1nn(-c2cc(Cl)ccc2[N+](=O)[O-])c(C)c1Cl"
  qualifier symbol: ">"
  TGI / µM: 100
- molecule: "COc1ccc(/C=C/CN(C)CCc2ccccc2)cc1OC"
  qualifier symbol: ">"
  TGI / µM: 100
- molecule: "O=C(Nc1ccccc1C(=O)NCCCO)/C(=C/c1ccccc1O)NC(=O)c1ccccc1"
  qualifier symbol: ">"
  TGI / µM: 89.9
- molecule: "O=C(N/N=C/c1ccccc1O)c1ccccc1Nc1ccnc(C(F)(F)F)c1"
  qualifier symbol: "="
  TGI / µM: 9.26
- molecule: "NC(=O)c1cc2ccccc2o/c1=N/O"
  qualifier symbol: ">"
  TGI / µM: 100
- molecule: "O=C1CCCCN1CCCCC#Cc1ccccc1C#Cc1ccc([N+](=O)[O-])cc1"
  qualifier symbol: "="
  TGI / µM: 79
- molecule: "CCC[CH2][Sn]1([CH2]CCC)[O]Cc2nc(C)ccc2[O]1"
  qualifier symbol: "="
  TGI / µM: 16.8
- molecule: "Brc1ccc2c(-c3csc(-c4c[nH]c5ccc(Br)cc45)n3)c[nH]c2c1"
  qualifier symbol: "="
  TGI / µM: 4.71
- molecule: "CC1(C)OC2[C@@H](CNC(=O)NC(=O)NC(=O)CI)O[C@@H](n3cnc4c(NC(=O)Nc5ccccc5)ncnc43)[C@H]2O1 (some centres undefined)"
  qualifier symbol: "="
  TGI / µM: 14.4
- molecule: "CN1C(=O)C2(Cc3cn(C45CC67SSC(CO)(C(=O)N6C4Nc4ccccc45)N(C)C7=O)c4ccccc34)SSC1(CO)C(=O)N2C (centres undefined)"
  qualifier symbol: "="
  TGI / µM: 0.0283
- molecule: "COc1ccc2c(c1)CC1=C(O2)c2ccc(OC)cc2OC1"
  qualifier symbol: "="
  TGI / µM: 50.8
- molecule: "O=C1/C(=C/c2ccccc2)CNC/C1=C\\c1ccccc1"
  qualifier symbol: "="
  TGI / µM: 2.93
- molecule: "CC(C)C(=O)NC(=S)Nc1ccc([N+](=O)[O-])cc1C#N"
  qualifier symbol: ">"
  TGI / µM: 100
- molecule: "CCCCN=C(NC#N)NCCCC"
  qualifier symbol: ">"
  TGI / µM: 100
- molecule: "COc1c(C)c2nc3ccccc3[nH]c2c2c(=O)ccnc12"
  qualifier symbol: ">"
  TGI / µM: 100
- molecule: "CC1(C)CNC(=O)C2(C=NC(C)(C)CNC(=O)C3(C=N1)CCCO3)CCCO2 (centres undefined)"
  qualifier symbol: ">"
  TGI / µM: 10
- molecule: "COCc1nc2c(OC)cc(-c3nc4ccc(N5CCN(C)CC5)cc4[nH]3)c(OC)c2[nH]1"
  qualifier symbol: ">"
  TGI / µM: 100
- molecule: "O=C(Cc1ccc([N+](=O)[O-])cc1)OCC#CCOC(=O)Cc1ccc([N+](=O)[O-])cc1"
  qualifier symbol: ">"
  TGI / µM: 10
- molecule: "NC(=O)c1ccc(I)c(N)c1"
  qualifier symbol: ">"
  TGI / µM: 100
- molecule: "COC(=O)[C@]12CC[C@@H](C)[C@H](C)[C@@H]1C1=CC[C@@H]3[C@@]4(C)C/C(=N\\O)[C@H](O)[C@@]5(C)COC(=C45)C[C@@]3(C)[C@]1(C)CC2"
  qualifier symbol: "="
  TGI / µM: 3.26
- molecule: "Nc1cc(N)c2nc(-c3ccccc3)c(Nc3ccc(Cl)c(Cl)c3)nc2c1"
  qualifier symbol: "="
  TGI / µM: 37
- molecule: "CCOC(=O)/C(C#N)=N\\Nc1ccc(-n2c(C)nc3ccccc3c2=O)cc1"
  qualifier symbol: ">"
  TGI / µM: 100
- molecule: "CC(=O)OC/C=C(/C=C/CNC1CCCCC1)OC(C)=O"
  qualifier symbol: "="
  TGI / µM: 23.9
- molecule: "C=c1c(OC)c(OC)c(O)c2c1=c1cc([N+](=O)[O-])cc(OC)c1=N2"
  qualifier symbol: ">"
  TGI / µM: 100
- molecule: "Cc1cc2[nH]c3c(C#N)c4c(c(=O)n3c2cc1C)CCCC4"
  qualifier symbol: ">"
  TGI / µM: 100
- molecule: "CC(=O)CNC(=O)OC(C)(C)C"
  qualifier symbol: ">"
  TGI / µM: 100
- molecule: "COc1cc(C2=C(c3ccccc3)COC2=O)cc(OC)c1OC"
  qualifier symbol: ">"
  TGI / µM: 100
- molecule: "COc1ccc2cc(NC(=O)N/N=C\\c3ccc(Cl)cc3)ccc2c1"
  qualifier symbol: ">"
  TGI / µM: 100
- molecule: "COc1cc(/C=C\\C(=O)O)ccc1OCc1ccccc1"
  qualifier symbol: ">"
  TGI / µM: 100
- molecule: "COc1cc2c(/C=C3/C(=O)Nc4ccccc43)c(Cl)[nH]c2cc1C"
  qualifier symbol: "="
  TGI / µM: 13.9
- molecule: "Brc1cccc(N=NN2CCCC2)c1"
  qualifier symbol: ">"
  TGI / µM: 100
- molecule: "Nc1c(C(=O)c2ccc(Cl)cc2)[nH]c(NCc2ccccc2)c1C(=S)Nc1ccccc1"
  qualifier symbol: "="
  TGI / µM: 3.14
- molecule: "CCOc1cc2c(Cl)ncnc2c(OCC)c1OCC"
  qualifier symbol: "="
  TGI / µM: 36.8
- molecule: "O=C(CSc1n[nH]c(=O)[nH]c1=O)NNC(=O)c1cccc2nc3ccccc3nc12"
  qualifier symbol: ">"
  TGI / µM: 100
- molecule: "C=CC(=O)N1CC2(CCN(c3nc(OC4CCN(CCCOC)CC4)nc4c(OCC(F)(F)F)c(-c5c(C)ccc6[nH]ncc56)c(C5CC5)cc34)CC2)C1"
  qualifier symbol: "="
  TGI / µM: 18.2
- molecule: "CC1=NN(C(=O)Nc2ccccc2)C(=O)C2CCC(=O)N12 (centres undefined)"
  qualifier symbol: ">"
  TGI / µM: 100
- molecule: "CCc1ccc(/C=C\\c2cc(OC)c(OC)c(OC)c2)cc1"
  qualifier symbol: "="
  TGI / µM: 14
- molecule: "CN1CCN(C)C12C=c1ccccc1=CC21CC1"
  qualifier symbol: ">"
  TGI / µM: 100
- molecule: "Oc1ccc2ccccc2c1N=Nc1nccs1"
  qualifier symbol: ">"
  TGI / µM: 41.7
- molecule: "Cn1c([O-])nc(-n2cc[n+](C)c2)cc1=O"
  qualifier symbol: ">"
  TGI / µM: 100
- molecule: "Oc1c(CN2CCC(N3CCCCC3)CC2)cc(Cc2cc(CN3CCC(N4CCCCC4)CC3)c(O)c3ncccc23)c2cccnc12"
  qualifier symbol: "="
  TGI / µM: 5.96
- molecule: "C[C@@H]1OC(O)[C@@H](F)[C@H](O)[C@@H]1O (some centres undefined)"
  qualifier symbol: ">"
  TGI / µM: 100
- molecule: "CCOc1cc(-c2nc3ccccn3c2/N=C/c2cc(Br)ccc2O)ccc1O"
  qualifier symbol: "="
  TGI / µM: 60.4
- molecule: "COC(=O)C1=Nc2c(C)nn(-c3ccccc3)c2N=C(c2ccc([N+](=O)[O-])cc2)C1"
  qualifier symbol: ">"
  TGI / µM: 10
